Data credit: patent US10167296B2

# Test system: MNK2a (pre-activated GST-MNK2a) (Homo sapiens (Human), UniProt Q9HBH9)
# Sequence (Q9HBH9 whole entry): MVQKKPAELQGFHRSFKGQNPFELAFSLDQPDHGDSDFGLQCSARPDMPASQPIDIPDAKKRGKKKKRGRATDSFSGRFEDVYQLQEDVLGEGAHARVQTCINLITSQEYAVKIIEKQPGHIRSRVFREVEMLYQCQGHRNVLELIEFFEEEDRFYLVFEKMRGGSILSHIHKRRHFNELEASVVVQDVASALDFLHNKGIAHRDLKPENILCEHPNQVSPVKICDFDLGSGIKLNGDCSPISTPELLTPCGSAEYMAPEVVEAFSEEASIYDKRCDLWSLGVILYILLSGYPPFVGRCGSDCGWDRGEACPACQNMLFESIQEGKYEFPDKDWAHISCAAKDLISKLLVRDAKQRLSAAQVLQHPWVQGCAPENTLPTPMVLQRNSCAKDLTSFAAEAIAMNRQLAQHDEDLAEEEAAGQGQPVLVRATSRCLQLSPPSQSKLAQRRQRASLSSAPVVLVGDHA
# Assay details: MNK2a in vitro kinase assay (assay 1), ADP-Glo
# Assay type: biochemical
# Test parameters: read-out: Mnk2 IC50
Parameter: IC50. Scope: all listed entries.
Readout kind: IC50 (nM)

>  <Smiles>
COc1c(N=S2(=O)CCOCC2)cc2ncnc(Nc3ccc(F)cc3O[C@@H]3CO[C@@H]4CCO[C@@H]43)c2c1C

>  <Value measured>
2.1

$$$$
>  <Smiles>
COc1c(N=S2(=O)CCCC2)cc2ncnc(Nc3ccc(F)cc3O[C@@H]3CO[C@H]4[C@@H]3OC[C@H]4O)c2c1C

>  <Value measured>
1.8

$$$$
>  <Smiles>
COc1c(N=S2(=O)CCCC2)cc2ncnc(Nc3ccc(F)cc3O[C@H](C)C(=O)NCC(F)(F)F)c2c1C

>  <Value measured>
2.3

$$$$
